Test system: velvetleaf
Assay: Test B pre-/postemergence herbicide test
Type: in vivo, Abutilon theophrasti
Settings: Postemergence, 500 g ai/ha; scale 0 (no effect) to 100 (complete control)
Velvetleaf plant response rating overview
Measurement label: Velvetleaf plant response rating

[[record]]
compound = "COC(=O)c1ccc(F)c(NC(=O)c2nn(C(C)C)nc2C)c1 [Compound 398]"
measurement_label = "Velvetleaf plant response rating"
number = 60

[[record]]
compound = "CCc1nn(C(C)(C)C)nc1C(=O)Nc1cccc(C(=O)N2CCCCC2)c1 [Compound 416]"
measurement_label = "Velvetleaf plant response rating"
number = 50

[[record]]
compound = "Cc1nn(C(C)(C)C)nc1C(=O)Nc1cccc(C(=O)N(C)C)c1 [Compound 391]"
measurement_label = "Velvetleaf plant response rating"
number = 60

[[record]]
compound = "CCNC(=O)c1cccc(NC(=O)c2nn(C(C)(C)CC)nc2CC)c1 [Compound 376]"
measurement_label = "Velvetleaf plant response rating"
number = 40

[[record]]
compound = "C=CCN(CC=C)C(=O)c1cccc(NC(=O)c2nn(C(C)(C)C)nc2C)n1 [Compound 439]"
measurement_label = "Velvetleaf plant response rating"
number = 0

[[record]]
compound = "CCN(CC)C(=O)c1cccc(NC(=O)c2nn(C(C)(C)C)nc2C)c1 [Compound 418]"
measurement_label = "Velvetleaf plant response rating"
number = 40

